- experiment-description: Aqueous solubility of the compound in aqueous buffer at 100 uM incubated for 24 hrs under agitation condition by UV-Vis spectrophotometric analysis
- Format: physicochemical
Recorded solubility at 24 h, 100 µM values for a group of compounds are listed next.
Field format: number, assumed µM, no unit text.

Suppose we examine the compound `Brc1ccc2cc(CNC3CCCCCCC3)[nH]c2c1` ; what solubility at 24 h, 100 µM value has been reported?
35.4

Likewise for `O=C(NC1CCCCCCC1)c1cc2ccccc2s1` ?
3.3

Likewise for `c1ccc2sc(CNC3CCCCCCC3)cc2c1` ?
73.5

Likewise for `c1ccc2[se]c(CNC3CCCCCCC3)cc2c1` ?
77.8

Likewise for `O=C(NC1CCCCCCC1)c1cc2ccc(Br)cc2[nH]1` ?
1.6

Further cases:
Suppose we examine the compound `c1ccc2[nH]c(CNC3CCCCCCC3)cc2c1` ; what solubility at 24 h, 100 µM value has been reported?
99.7

Likewise for `Cc1cc(C)c2cc(CNC3CCCCCCC3)[nH]c2c1` ?
70.1
